Reported T/C by item:
# Test system: L1210 leukemia ip in BDF1 mice, survival T/C
# procedureDetails: NCI In Vivo Anticancer Drug Screen. Data for tumor model L1210 Leukemia (intraperitoneal) in B6D2F1 (BDF1) mice
# condition: endpoint: mean survival time; dose: 100.0 mg/kg/injection; schedule: Q01DX009 (ip); vehicle: saline; higher = longer survival
Inconclusive results and toxic doses are left out.

{"columns": ["compound", "assayTarget", "T/C"],
 "data": [
  ["CNC(=O)NCC1OC(OC2(CO)OC(CNC(=O)NC)C(O)C2O)C(O)C(O)C1O (stereo not drawn)", "L1210 leukemia ip in BDF1 mice, survival T/C", "98 % of control"],
  ["CCCCNP(=O)(OCC)OCC", "L1210 leukemia ip in BDF1 mice, survival T/C", "109 % of control"],
  ["CNC(Cl)(Cl)NC", "L1210 leukemia ip in BDF1 mice, survival T/C", "87 % of control"],
  ["COc1ccccc1P(c1ccccc1OC)c1ccccc1OC", "L1210 leukemia ip in BDF1 mice, survival T/C", "95 % of control"]
]}

# lookup: L1210 leukemia ip in BDF1 mice, survival T/C T/C, key = C=CCNP(=O)(OCC)OCC
104 % of control

# lookup: L1210 leukemia ip in BDF1 mice, survival T/C T/C, key = CC(C)=CCNc1ncnc2c1ncn2C1OC(CO)C(O)C1O (stereo not drawn)
110 % of control

# lookup: L1210 leukemia ip in BDF1 mice, survival T/C T/C, key = CC12CC3(O)CCC1CCC2C(=O)C3 (stereo not drawn)
95 % of control

# lookup: L1210 leukemia ip in BDF1 mice, survival T/C T/C, key = NC(=O)NNC(N)=O
98 % of control

---

# System: L1210 leukemia ip in BDF1 mice, survival T/C
# procedureDetails: NCI In Vivo Anticancer Drug Screen. Data for tumor model L1210 Leukemia (intraperitoneal) in B6D2F1 (BDF1) mice
# condition: endpoint: mean survival time; dose: 200.0 mg/kg/injection; schedule: Q01DX001 (ip); vehicle: saline; higher = longer survival
Toxic doses and inconclusive results are not listed.
Reported T/C by item:

{"columns": ["compound", "T/C"],
 "data": [
  ["C(=C\\c1ccc2ccccc2n1)/c1ccccc1", "106 % of control"],
  ["O=S(=O)(c1ccc(NC(=S)Oc2ccccc2)cc1)c1ccc(NC(=S)Oc2ccccc2)cc1", "104 % of control"],
  ["COC(=O)CC(c1ccc(Cl)cc1)N1CCCCC1 (stereo unspecified)", "102 % of control"],
  ["O=C1C2=C(CCCC2)C(=O)c2ccccc21", "96 % of control"],
  ["N#CCCN1CCCC1=O", "100 % of control"]
]}

Query compound follows.
# lookup: L1210 leukemia ip in BDF1 mice, survival T/C T/C, key = CC(=O)NCC(O)c1ccccc1 (stereo unspecified)
100 % of control

---

# Test system: L1210 leukemia ip in BDF1 mice, survival T/C
# procedureDetails: NCI In Vivo Anticancer Drug Screen. Data for tumor model L1210 Leukemia (intraperitoneal) in B6D2F1 (BDF1) mice
# condition: endpoint: mean survival time; dose: 100.0 mg/kg/injection; schedule: Q01DX001 (ip); vehicle: saline; higher = longer survival
Inconclusive results and toxic doses are left out.
parameter: T/C

Solved entries:
{"columns": ["molecule", "testValue"],
 "data": [
  ["NCC1OC(OC2C(N)CC(N)C(O)C2OC2OC(CO)C(O)C2O)C(N)C(O)C1O (stereo unspecified)", "100 % of control"],
  ["CC(C)(C)C1CCC2(CC1)CO2 (stereo unspecified)", "98 % of control"],
  ["CN(C)CCOCCN(C)C", "102 % of control"],
  ["CN=C(C#N)c1ccc(OC)c(OC)c1", "96 % of control"],
  ["Nc1ccccc1N/N=C/c1ccccc1", "101 % of control"]
]}

Identify T/C associated with the molecule O=S(=O)(O)CC1(CS(=O)(=O)O)COC1
95 % of control

Identify T/C associated with the molecule Cc1ccc(-n2cnnn2)cc1
103 % of control

Identify T/C associated with the molecule O=C(CCCC(=O)N/N=C/c1ccc(Cl)c(Cl)c1)N/N=C\c1ccc(Cl)c(Cl)c1
110 % of control

---

# Tested on: L1210 leukemia ip in BDF1 mice, survival T/C
# procedureDetails: NCI In Vivo Anticancer Drug Screen. Data for tumor model L1210 Leukemia (intraperitoneal) in B6D2F1 (BDF1) mice
# condition: endpoint: mean survival time; dose: 100.0 mg/kg/injection; schedule: Q01DX001 (ip); vehicle: saline with Tween-80; higher = longer survival
Toxic doses and inconclusive results are not listed.
parameter: T/C

{"columns": ["chemicalSmiles", "assayTarget", "parameter", "testValue"],
 "data": [
  ["[O-]/[N+](=N\\O)c1ccc(/[N+]([O-])=N\\O)cc1", "L1210 leukemia ip in BDF1 mice, survival T/C", "T/C", "95 % of control"]
]}

Identify T/C associated with the molecule O=C(O)Cc1cccc(S(=O)(=O)F)c1
96 % of control

Identify T/C associated with the molecule O=C1c2ccccc2C(=O)c2c1cccc2S(=O)(=O)O
105 % of control

---

# Test system: L1210 leukemia ip in BDF1 mice, survival T/C
# procedureDetails: NCI In Vivo Anticancer Drug Screen. Data for tumor model L1210 Leukemia (intraperitoneal) in B6D2F1 (BDF1) mice
# condition: endpoint: mean survival time; dose: 200.0 mg/kg/injection; schedule: Q04DX003 (ip); vehicle: saline; higher = longer survival
Inconclusive results and toxic doses are left out.
Reported T/C by item:

Solved entries:
{"columns": ["compound", "parameter", "testValue"],
 "data": [
  ["CCC1(CC)NC(=O)NC1=O", "T/C", "102 % of control"],
  ["O=C(CCN1CC1)N1CCOCC1", "T/C", "100 % of control"],
  ["CNCCO", "T/C", "98 % of control"]
]}

Query compound follows.
Identify T/C associated with the compound N=Cc1c(O)[nH]c(=O)[nH]c1=O
93 % of control

---

# Test system: L1210 leukemia ip in BDF1 mice, survival T/C
# procedureDetails: NCI In Vivo Anticancer Drug Screen. Data for tumor model L1210 Leukemia (intraperitoneal) in B6D2F1 (BDF1) mice
# condition: endpoint: mean survival time; dose: 100.0 mg/kg/injection; schedule: Q01DX001 (ip); vehicle: saline; higher = longer survival
Toxic doses and inconclusive results are not listed.
parameter: T/C

{"columns": ["compound", "T/C"],
 "data": [
  ["CCCCCCCC1CCC(=O)O1 (stereo not drawn)", "95 % of control"],
  ["Nc1nc(N)c(N=Nc2ccc(S(=O)(=O)Nc3ccccn3)cc2)c(=O)[nH]1", "94 % of control"],
  ["CC(C)(C)c1cc(O)c(C(C)(C)C)cc1O", "96 % of control"],
  ["O=C1C2=C(CCCC2)C(=O)c2ccccc21", "100 % of control"],
  ["CCCC(=O)CC(=O)CC(C)C", "94 % of control"],
  ["Nc1nc2c(ncn2C2OC(CO)C(O)C2O)c(=O)n1N (stereo not drawn)", "102 % of control"]
]}

Identify T/C associated with the compound CCCCCCNC(=O)Nc1ccc(Cl)c(Cl)c1
98 % of control

Identify T/C associated with the compound Brc1nc(-c2ccccc2)c(-c2ccccc2)nc1Br
96 % of control

---

# Tested on: L1210 leukemia ip in BDF1 mice, survival T/C
# procedureDetails: NCI In Vivo Anticancer Drug Screen. Data for tumor model L1210 Leukemia (intraperitoneal) in B6D2F1 (BDF1) mice
# condition: endpoint: mean survival time; dose: 200.0 mg/kg/injection; schedule: Q04DX003 (ip); vehicle: saline; higher = longer survival
Toxic doses and inconclusive results are not listed.
parameter: T/C

Solved entries:
{"columns": ["molecule", "parameter", "testValue"],
 "data": [
  ["OCC(O)c1ccccn1 (centres undefined)", "T/C", "94 % of control"],
  ["O=C(Cl)C12CCC(CC1)C1CCC2CC1", "T/C", "92 % of control"],
  ["CCCCCCCC1CCC(=O)O1 (centres undefined)", "T/C", "97 % of control"]
]}

Identify T/C associated with the molecule Cn1nnnc1N
105 % of control

Origin of measurements: PubChem BioAssay AID248
